Every entry's value here was drawn from a melting point compilation (Tetko et al.; mined from patent text by program, amines drawn as free bases though some values may be those of a salt).

Value type: melting point

These solved cases illustrate the format of a correct answer.
>  <Compound>
O=C1CCC(CC(O)C(=O)OCc2ccccc2)N1 (stereo not drawn)

>  <melting point>
95 to 96 °C

$$$$
>  <Compound>
Cn1nc(C(F)(F)F)cc1Oc1cc(C#N)cc(Oc2cc(C(F)(F)F)nn2C)c1

>  <melting point>
139 °C

$$$$

Which melting point is listed for "Clc1cc(N2CCCC2)nc(NC23CC4CC(CC(C4)C2)C3)n1" ?
178 to 180 °C

* * *

The reader will find reported melting point values listed item by item below.

>  <Molecule>
CCOC(=O)Cc1c2cc(OC)ccc2n2c(Cc3ccccn3)nccc12

>  <melting point>
103 to 104 °C

$$$$
>  <Molecule>
COC(=O)c1ncccc1Br

>  <melting point>
34 to 36 °C

$$$$
>  <Molecule>
O=CNc1ccccc1-c1cc2ccccc2[nH]1

>  <melting point>
147 to 149 °C

$$$$
>  <Molecule>
Nc1nc2nc(SCc3ccccc3)ncc2cc1Oc1ccc(F)cc1

>  <melting point>
186 to 192 °C

$$$$

Which melting point is listed for "CC(C)(C)OC(=O)N1CCN(C(=O)Nc2ccccc2)CC1" ?
168 to 169 °C

Consider next the molecule CCC(C#N)Oc1cccc([N+](=O)[O-])c1Cl (centres undefined) in the same way.
69 to 71 °C

Consider next the molecule C[C@@H](O)C(O)(Cn1ccnc1)c1ccc(F)cc1F (some centres undefined) in the same way.
73 to 76 °C

Consider next the molecule "CCN(CC)CCNC(=O)c1ccc(NC(=O)c2ccc3c(c2)OCO3)cc1OC" in the same way.
131 °C

Consider next the molecule "Brc1cnc2c(c1)ncn2-c1cccc(-n2ccnc2)c1" in the same way.
236 to 238 °C

Consider next the molecule "O=C(O)c1ccc(C#Cc2ccccc2F)o1" in the same way.
196 to 198 °C

Consider next the molecule "COc1cc(Nc2ncc3c(n2)-c2ccccc2CCC3)cc(OC)c1OC" in the same way.
201 to 202 °C

Consider next the molecule "CNC(=O)C[C@@H]1N=C(c2ccc(Cl)cc2)c2c(sc(C)c2C)-n2c(C)nnc21" in the same way.
143 to 145 °C

Consider next the molecule "Cc1cccc(-c2nc3ccccn3c2-c2ccnc(-c3ccc(CN4CCOCC4)cc3)c2)n1" in the same way.
156 °C

Consider next the molecule "Nc1c(F)c(-c2ccc(Cl)cc2)nc(C=O)c1Cl" in the same way.
166 to 169 °C

* * *

The reader will find reported melting point values listed item by item below.

Which melting point is listed for "NS(=O)(=O)c1ccc(-c2cccn2-c2ccc(Cl)cc2)cc1" ?
179 to 181 °C

Consider next the compound "COc1cc(OC)c(F)c(NCc2ccccc2)c1F" in the same way.
65 to 66 °C

Consider next the compound "Cc1nnc2c3cccc(Br)c3ccn12" in the same way.
203 to 204 °C

Consider next the compound "Cc1nc2c3c(ccn2c1C)C(=O)[C@@](C)(O)[C@@H](c1ccccc1)N3" in the same way.
240 °C

Consider next the compound "COc1ccc2ccc(NC(=O)c3cccc(N(C)C)c3)nc2n1" in the same way.
130 °C

Consider next the compound "C[C@]12C/C(=C\F)[C@H]3[C@@H](CCC4=CC(=O)CC[C@@H]43)[C@@H]1CCC2=O" in the same way.
208 to 212 °C

* * *

The reader will find reported melting point values listed item by item below.

These solved cases illustrate the format of a correct answer.
>  <Compound>
CCN1CCN(c2nccc(Oc3ccc(NC(=O)c4cc(F)cc(N5CCOCC5)c4)c4ccccc34)n2)CC1

>  <melting point>
185 to 186 °C

$$$$
>  <Compound>
COC(=O)C1OC(OC(=O)C(C)C)C(OC(=O)C(C)C)C(OC(=O)C(C)C)C1OC(=O)C(C)C (stereo not given)

>  <melting point>
127 °C

$$$$
>  <Compound>
Clc1ccc(C#Cc2ccc(Br)cc2)cc1

>  <melting point>
179 °C

$$$$
>  <Compound>
CCCCCCCCCCCCCCCCCCOC(=O)C(NC(C)=O)C(=O)OC (stereo not given)

>  <melting point>
75 to 77 °C

$$$$
>  <Compound>
CC(O)(COc1ccc(C(=O)c2ccccc2)cc1)C(F)(F)F (stereo not given)

>  <melting point>
70 to 73 °C

$$$$
>  <Compound>
O=C(O)CCc1cnoc1-c1cc(Cl)ccc1Cl

>  <melting point>
103 to 104 °C

$$$$
>  <Compound>
O=C(c1ccccc1)N1CC2C(C1)C2N(C(=O)c1ccccc1)c1ncc2cc(-c3ccccc3Cl)c(=O)n(C3CC3)c2n1 (stereo not given)

>  <melting point>
124 to 130 °C

$$$$
>  <Compound>
COc1cc(Nc2nccc(-c3nc(C)c(C)s3)n2)cc(OC)c1OC

>  <melting point>
207 °C

$$$$

Which melting point is listed for CC(Cl)(Cl)C(=O)N1CCCC1C(=O)O (stereo not given) ?
61 to 62 °C

Consider next the compound NCC(CC(=O)O)C1CCCC1 (stereo not given) in the same way.
178 to 180 °C

Consider next the compound "O=C(Cn1c(-c2ccc(Cl)cc2)nc2cccnc21)Nc1ccccn1" in the same way.
190 to 191 °C

Consider next the compound "COc1ccc(C2CCCCC2)cc1-c1csc(NC(=O)N2CCN(C(=O)C3CCOCC3)CC2)n1" in the same way.
276 °C

Consider next the compound "COc1cc(CCC#N)c(Br)cc1OCc1ccccc1" in the same way.
52 to 53 °C

Consider next the compound O=C(CCc1cccnc1)NC(Cc1c[nH]c2ccccc12)C(=O)CCc1cc(C(F)(F)F)cc(C(F)(F)F)c1 (stereo not given) in the same way.
123 to 124 °C

Consider next the compound "O=c1[nH]c(=O)n2c3c(cccc13)S(=O)(=O)c1ccc(C(F)(F)F)cc1-2" in the same way.
290 to 293 °C

Consider next the compound CS(=O)c1cc(C(=O)O)c(Cl)cc1Cl (stereo not given) in the same way.
200 to 201 °C

Consider next the compound "CCOCc1nc2c(N)nc3cc(-c4cccc(C(=O)N5CCCC5)c4)cnc3c2n1CC(C)(C)O" in the same way.
185 to 187 °C

Consider next the compound "N=C(N)NCc1cc(CCC(=O)O)no1" in the same way.
> 297 °C

Consider next the compound "O=C(O)Cc1cc(C(=O)c2ccccc2Cl)ccc1O" in the same way.
148 °C

Consider next the compound "O=Cc1cc([N+](=O)[O-])ccc1OC(F)(F)F" in the same way.
32 to 34 °C

* * *

Value type: melting point

These solved cases illustrate the format of a correct answer.
>  <Compound>
CC(C)(C(=O)N(O)Cc1ccccc1Cl)C(Cl)Cl

>  <melting point>
136 to 138 °C

$$$$
>  <Compound>
CCCCSc1nc(N)nc2c1ncn2C1C=CC(CO)C1 (stereo not given)

>  <melting point>
120 to 123 °C

$$$$
>  <Compound>
CC(C)Oc1cccc(NC(=O)OC(C)(C)C)c1

>  <melting point>
79 to 81 °C

$$$$
>  <Compound>
O=C(Cc1ccccc1Cl)Nc1ccc(C(=O)Oc2ccccc2)c(Cl)c1

>  <melting point>
160 to 163 °C

$$$$
>  <Compound>
CC(C)(C)c1ccc(-c2[nH]c3nccnc3c2CCCO)cc1

>  <melting point>
187 to 189 °C

$$$$
>  <Compound>
COc1ccc(CN(C)CCCSc2ccc(NC(=O)c3cccc4c(=O)c5ccccc5[nH]c34)cc2)cc1OC

>  <melting point>
140 °C

$$$$
>  <Compound>
O=c1[nH]c(=Cc2ccco2)c(=O)[nH]c1=Cc1ccc(OCc2ccccc2)cn1

>  <melting point>
256 to 257 °C

$$$$
>  <Compound>
COC(=O)c1cccc(NC(=O)N(C)C)c1

>  <melting point>
110 °C

$$$$

Which melting point is listed for "CCn1c(=O)[nH]c2ncccc2c1=O" ?
240 to 241 °C

Consider next the compound "CC(C)n1nc(-c2sc(C(=O)N3CCCCC3)nc2-c2ccccc2)ccc1=O" in the same way.
111 to 112 °C

* * *

The reader will find reported melting point values listed item by item below.

>  <Molecule>
O=C(Cc1cccs1)N1C(=O)OC[C@@H]1Cc1ccccc1

>  <melting point>
56 to 59 °C

$$$$

Which melting point is listed for "O=[N+]([O-])c1ccc(-c2cccnc2)cc1" ?
145 to 148 °C

* * *

Value type: melting point

These solved cases illustrate the format of a correct answer.
>  <Molecule>
CCCc1nn(-c2ccc(C(F)(F)F)cn2)cc1COc1ccc(CCC(=O)O)c(C)c1

>  <Result>
129 to 130 °C

$$$$
>  <Molecule>
CCN(CC)C(=O)C=C1C=C(C(C)(C)C)C(=O)C(C(C)(C)C)=C1

>  <Result>
109 to 110 °C

$$$$
>  <Molecule>
Cc1nc2nccc(C(C)Oc3ccc(Cl)cc3)n2n1 (stereo not given)

>  <Result>
138 °C

$$$$
>  <Molecule>
CC1N(C)C=C([N+](=O)[O-])N1CCOC(=O)Nc1cccc(C(N)=O)c1 (stereo not given)

>  <Result>
207 °C

$$$$

Attention now shifts to the item below.
Which melting point is listed for "CCCNC(=O)C(C)=Cc1ccc2c(c1)c(Cc1ccc(C(=O)O)cc1OC)cn2C" ?
89 to 95 °C
